Hello, the source for this data is patent US10322112B2, in case you need it.

# subject_of_test: RhlR (Pseudomonas aeruginosa, UniProt P54292)
# Construct: expressed in transfected cells; host or cells: E. coli JLD271
# Sequence (P54292 whole entry): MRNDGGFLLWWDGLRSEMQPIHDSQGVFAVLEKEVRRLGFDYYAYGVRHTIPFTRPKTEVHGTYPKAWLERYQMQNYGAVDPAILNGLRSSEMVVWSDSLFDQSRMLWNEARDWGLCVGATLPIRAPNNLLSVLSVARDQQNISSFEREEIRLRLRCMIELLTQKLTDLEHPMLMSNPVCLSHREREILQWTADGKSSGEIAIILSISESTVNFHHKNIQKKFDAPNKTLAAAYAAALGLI
# assay_notes: E. coli reporter gene antagonism assay, RhlR
# Assay type: cell-based
# settings: compounds at 100 mm in the presence of 10 mm BHL; untreated culture = 100%; error ±10%; selected data reproduced from Welsh et al. 2015
Kindly apply the following: yes (1) if Inhibition [%] RhlR is less than 70%, no (0) in every other case.

Sample answers from the record:
>  <compound>
CSc1ccc(CCC(=O)N[C@H]2CCOC2=O)cc1 [E34]

>  <qualitative_label>
yes (1)

$$$$
>  <compound>
Cc1ccc(CC(=O)N[C@H]2CCOC2=O)cc1 [C19]

>  <qualitative_label>
no (0)

$$$$
>  <compound>
O=C(Cc1ccc(Cl)c(Cl)c1)N[C@H]1CCOC1=O [E11]

>  <qualitative_label>
yes (1)

$$$$

hey, is Inhibition [%] RhlR for O=C(Cc1ccc(SC(F)(F)F)cc1)N[C@H]1CCOC1=O [E8] lower than 70% or not?
yes (1)

Next compound up: O=C(Cc1ccc(I)cc1)N[C@H]1CCOC1=O [C10]
no (0)
